These entries and their values trace back to PubChem BioAssay (NCI).

# System: DMS 273 small cell lung
# TEST SUMMARY: NCI tumour cell line growth inhibition, 48 h
ASSAY METRIC: TGI

> print(dat)
                                   molecule  assay.metric   reading
1   CN(C(=O)c1ccc([N+](=O)[O-])cc1)c1ccccc1           TGI  > 100 µM
2   CCN(CC)CCCNC(=O)c1ccc([N+](=O)[O-])cc1O           TGI  > 100 µM
3  CC(=O)N1CCN(c2ccc(OCC3COC(Cn4ccnc4)(c4ccc(Cl)cc4Cl)O3)cc2)CC1 (stereo not given)           TGI   61.4 µM
4  COc1cc(/C=C2\[C@H]3c4c(c(OC)c(C)c(OC)c4OC)CC(C(=O)N2Cc2ccccc2)N3C)c(OC)c(C)c1OC           TGI   38.6 µM
5                    CN(C)C(=S)SSC(=S)N(C)C           TGI  > 100 µM

Lookup result for O=C(CN(c1ccccc1)c1ccccc1)N1c2ccccc2C2C=CC=CC21 (stereo not given) ; measured TGI: > 60.3 µM

Lookup result for CC1=NN(C(=O)CC(=O)Nc2ccccc2F)C(=O)C1N=Nc1ccccc1[N+](=O)[O-] (stereo not given) ; measured TGI: > 100 µM

Lookup result for CCNC(=O)/C(=C/c1ccc(OC)cc1)c1cc(OC)c(OC)c(OC)c1 ; measured TGI: > 100 µM

Lookup result for COc1cc2c(cc1OC)[C@H]1CN3CCC[C@H]3C=C1c1ccc(OC)c(O)c1-2 ; measured TGI: 0.000139 µM

Lookup result for COc1cccc(/C=N/[N-]C(=O)c2ccncc2)c1[O-].COc1cccc(/C=N/[N-]C(=O)c2ccncc2)c1[O-].[O]=[U](=[O])([OH2+])[OH2+] ; measured TGI: > 56.6 µM
